Exercise: for every item that follows, state its recorded IC50.
biological target: UniProt Q8IL11; test: P. falciparum M17LAP inhibitors, primary screen, biochemical, fluorogenic H-Leu-NHMec substrate, 1536-well (AID 1619); type: functional
Sequence (Q8IL11 whole entry): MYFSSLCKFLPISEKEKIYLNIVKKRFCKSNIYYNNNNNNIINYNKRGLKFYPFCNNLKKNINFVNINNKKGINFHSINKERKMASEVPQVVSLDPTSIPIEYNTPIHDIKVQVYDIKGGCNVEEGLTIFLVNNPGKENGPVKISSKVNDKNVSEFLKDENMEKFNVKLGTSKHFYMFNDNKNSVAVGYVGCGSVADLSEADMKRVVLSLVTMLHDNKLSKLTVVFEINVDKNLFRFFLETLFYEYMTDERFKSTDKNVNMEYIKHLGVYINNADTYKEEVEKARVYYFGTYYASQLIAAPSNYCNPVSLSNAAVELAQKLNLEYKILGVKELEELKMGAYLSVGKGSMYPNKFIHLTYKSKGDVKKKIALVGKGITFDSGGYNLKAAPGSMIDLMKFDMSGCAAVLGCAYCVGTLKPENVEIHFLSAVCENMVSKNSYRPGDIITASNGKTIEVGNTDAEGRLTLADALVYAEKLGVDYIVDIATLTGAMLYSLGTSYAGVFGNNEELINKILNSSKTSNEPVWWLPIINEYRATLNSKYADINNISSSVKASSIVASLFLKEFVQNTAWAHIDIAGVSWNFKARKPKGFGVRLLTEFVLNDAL
Active and inactive are the calls of the source.

// Cc1ccccc1NC(=O)CN1C(=O)NC2(CCCCC2)C1=O : IC50 value = 71.9 µM (active)

// O=C(O)c1ccc(N=Nc2c(O)[nH]c3ccccc23)cc1 : IC50 value = 84.3 µM (active)

// O=C(O)CCC(=O)Nc1sc2c(c1C(=O)Nc1cccc3ccccc13)CCCCC2 : IC50 value = 51 µM (active)

// Cc1c(OCc2nn[nH]n2)ccc2c(-c3ccccc3)cc(=O)oc12 : IC50 value = 95.1 µM (active)

// O=C(O)C1CCCCC1C(=O)Nc1cc(C(F)(F)F)ccc1Cl (stereo unspecified) : IC50 value = 17.5 µM (active)

// CC(C)(C)C1CCc2c(C(=O)NNC(=O)CCC(=O)O)csc2C1 (stereo unspecified) : IC50 value = 14.5 µM (active)

----------
Exercise: for every item that follows, state its recorded EC50.
Biological target: Short transient receptor potential channel 4 (Mus musculus)
Sequence (Q9QUQ5 whole entry): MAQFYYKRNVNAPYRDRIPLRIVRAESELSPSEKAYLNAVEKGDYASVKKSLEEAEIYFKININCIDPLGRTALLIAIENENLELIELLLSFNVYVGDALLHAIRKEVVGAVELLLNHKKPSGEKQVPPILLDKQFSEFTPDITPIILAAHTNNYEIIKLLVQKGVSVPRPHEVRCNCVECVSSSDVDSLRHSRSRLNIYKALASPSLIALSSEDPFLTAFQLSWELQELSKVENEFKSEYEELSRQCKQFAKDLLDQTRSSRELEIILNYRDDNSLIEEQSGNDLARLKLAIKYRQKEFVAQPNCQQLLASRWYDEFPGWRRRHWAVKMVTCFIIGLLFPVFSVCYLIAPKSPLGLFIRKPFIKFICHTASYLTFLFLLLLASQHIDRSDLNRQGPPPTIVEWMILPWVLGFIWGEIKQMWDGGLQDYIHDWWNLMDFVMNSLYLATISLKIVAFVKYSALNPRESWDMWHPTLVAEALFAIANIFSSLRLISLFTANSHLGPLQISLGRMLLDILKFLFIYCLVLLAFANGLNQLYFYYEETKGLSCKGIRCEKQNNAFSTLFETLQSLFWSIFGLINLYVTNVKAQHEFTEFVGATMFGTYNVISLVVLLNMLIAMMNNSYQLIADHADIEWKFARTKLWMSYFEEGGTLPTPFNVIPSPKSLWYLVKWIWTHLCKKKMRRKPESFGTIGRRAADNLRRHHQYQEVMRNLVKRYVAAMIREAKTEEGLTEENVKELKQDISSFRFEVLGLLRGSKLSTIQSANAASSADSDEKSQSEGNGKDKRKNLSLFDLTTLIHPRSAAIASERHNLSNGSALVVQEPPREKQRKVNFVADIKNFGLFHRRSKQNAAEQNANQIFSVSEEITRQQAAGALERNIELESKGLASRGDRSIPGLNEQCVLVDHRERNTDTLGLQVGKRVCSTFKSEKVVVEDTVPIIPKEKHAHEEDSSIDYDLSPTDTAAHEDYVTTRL
Test: mouse TRPC4 channel inhibitors, dose response, cell-based, HEK293 TRPC4/mu-opioid, Fluo-4 calcium (AID 434942);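 also: potency of inhibitors blocking the TRPC4 calcium response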
Type: functional
Calls of active or inactive are those of the source.

// CC(=O)OC1(c2ccccc2)CCN(C2CCCCC2)CC1C (stereo unspecified) : EC50 value = 1.06 µM (active)

// Cc1ccc(C)c(S(=O)(=O)/N=C2\C=C(NS(=O)(=O)c3ccccc3)C(=O)c3ccccc32)c1 : EC50 value = 6.68 µM (active)

// Cc1ccc(C)c2nc(O)c(CN(CC3CCCO3)C(S)=NCc3ccco3)cc12 (stereo unspecified) : EC50 value = 2.11 µM (active)

// Cc1cccc(-n2ccnc2CN2CCC(CO)(Cc3ccccc3)CC2)c1 : EC50 value = 1.68 µM (active)

// CCCn1c(=N)n(CC(=O)C(C)(C)C)c2ccccc21 : EC50 value = 5.31 µM (active)

// O=C(CN1CCN(Cc2ccccc2Cl)CC1)N=Nc1c(O)[nH]c2ccccc12 : EC50 value = 0.376 µM (active)

----------
assay: inhibitors of SNCA 5'UTR-driven reporter translation, confirmation, H4 neuroglioma cells, luminescence (AID 1988); format: functional, cell-based
Activity calls are given as the source filed them.
Exercise: for every item that follows, state its recorded EC50.

// Nc1ncccc1OCc1cccc(C(F)(F)F)c1 : EC50 value = > 120 µM (not active)

// CCN1CCCC1CNC(=O)c1ccc2c(c1)NC(=O)/C(=C\c1ccc(C)cc1)S2 (stereo unspecified) : EC50 value = > 120 µM (not active)

// CC(C)CC(NC(=O)c1ccc(Cl)cc1)C(=O)OCC(=O)c1ccc2c(c1)NC(=O)CO2 (stereo unspecified) : EC50 value = 4.38 µM (active)

// CCC(=O)Nc1nc2ccccc2n1Cc1ccc(C)cc1 : EC50 value = 8.69 µM (active)

// CCN(CC)c1ccc(-c2nn3c(-c4[nH]nc5c4CCC5)nnc3s2)cc1 : EC50 value = < 0.1 µM (active)

// Cc1cc(C)c(S(C)(=O)=O)c(Oc2ccc(C(C)(C)C)cc2)n1 : EC50 value = 80.7 µM (active)

----------
target: 72 kDa type IV collagenase (Homo sapiens); test: Dose Response validation of uHTS RPN11 inhibitor hits using a MMP-2 Fluorescence assay.; type: functional
Sequence (P08253 whole entry): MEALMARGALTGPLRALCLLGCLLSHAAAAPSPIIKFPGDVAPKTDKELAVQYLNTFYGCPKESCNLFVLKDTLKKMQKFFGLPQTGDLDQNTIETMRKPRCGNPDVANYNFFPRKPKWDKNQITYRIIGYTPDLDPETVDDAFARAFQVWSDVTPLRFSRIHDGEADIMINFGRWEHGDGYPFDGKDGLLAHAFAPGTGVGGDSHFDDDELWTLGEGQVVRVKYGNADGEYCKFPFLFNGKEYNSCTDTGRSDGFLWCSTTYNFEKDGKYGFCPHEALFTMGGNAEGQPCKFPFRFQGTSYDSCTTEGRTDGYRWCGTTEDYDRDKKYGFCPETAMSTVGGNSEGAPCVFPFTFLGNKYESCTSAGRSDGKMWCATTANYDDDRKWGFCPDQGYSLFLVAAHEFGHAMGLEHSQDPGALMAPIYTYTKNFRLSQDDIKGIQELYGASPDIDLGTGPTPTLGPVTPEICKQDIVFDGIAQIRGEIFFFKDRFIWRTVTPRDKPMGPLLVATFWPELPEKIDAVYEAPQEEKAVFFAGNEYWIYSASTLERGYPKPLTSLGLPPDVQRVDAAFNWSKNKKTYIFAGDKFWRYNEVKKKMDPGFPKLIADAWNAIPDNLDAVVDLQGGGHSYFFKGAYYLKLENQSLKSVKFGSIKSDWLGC
Calls of active or inactive are those of the source.
Hi there, use one of these labels in your reply, thanks! active, inactive

Task: Per the assay record, what outcome was assigned to Cc1cc(C)cc(-n2cccc2/C=C2/C(=N)N3C(=NC2=O)SN=C3S(C)(=O)=O)c1 ?
Result: active

Task: Per the assay record, what outcome was assigned to C(=C\c1ccco1)/C1=NN(c2ccccc2)C(c2ccco2)C1 (centres undefined) ?
Result: inactive

Task: Per the assay record, what outcome was assigned to Cc1ccc(-n2cccc2/C=C2/C(=N)N3C(=NC2=O)SN=C3S(C)(=O)=O)cc1 ?
Result: inactive

Task: Per the assay record, what outcome was assigned to NS(=O)(=O)c1ccc(NC(=O)c2cccc(N3C(=O)c4ccccc4C3=O)c2)cc1 ?
Result: inactive

----------
biological target: Corticotropin-releasing factor receptor 2/Corticotropin-releasing factor-binding protein (Homo sapiens, UniProt P24387+Q13324); test: Dose Response confirmation of uHTS hits for small molecule antagonists of the CRF-binding protein and CRF-R2 receptor complex.; assay type: functional; conditions: read-out: IC50_Mean
Sequence (Q13324 whole entry): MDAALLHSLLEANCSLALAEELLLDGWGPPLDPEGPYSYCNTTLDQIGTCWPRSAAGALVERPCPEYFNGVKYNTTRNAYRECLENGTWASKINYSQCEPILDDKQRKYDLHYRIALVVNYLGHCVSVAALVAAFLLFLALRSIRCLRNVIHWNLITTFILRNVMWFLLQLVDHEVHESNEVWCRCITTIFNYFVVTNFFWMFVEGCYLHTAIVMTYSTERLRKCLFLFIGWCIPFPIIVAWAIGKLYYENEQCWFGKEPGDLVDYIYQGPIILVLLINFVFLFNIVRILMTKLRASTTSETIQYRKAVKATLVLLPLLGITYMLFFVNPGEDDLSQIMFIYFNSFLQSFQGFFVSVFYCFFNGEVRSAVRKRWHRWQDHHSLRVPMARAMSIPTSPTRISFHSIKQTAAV
Sequence (P24387 whole entry): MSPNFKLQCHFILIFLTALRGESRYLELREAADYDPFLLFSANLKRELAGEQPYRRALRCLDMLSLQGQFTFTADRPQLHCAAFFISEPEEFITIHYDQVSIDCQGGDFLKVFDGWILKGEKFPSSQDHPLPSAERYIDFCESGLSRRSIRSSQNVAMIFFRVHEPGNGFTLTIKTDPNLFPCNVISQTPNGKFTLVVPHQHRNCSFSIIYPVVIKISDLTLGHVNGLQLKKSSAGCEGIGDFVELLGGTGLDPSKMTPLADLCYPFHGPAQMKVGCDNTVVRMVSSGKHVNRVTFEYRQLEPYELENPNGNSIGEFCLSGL
The source made the active and inactive calls.
Hi there, use one of these labels in your reply, thanks! active, inactive

Task: Per the assay record, what outcome was assigned to Cc1cccc(C)c1NC(=O)Cc1cccs1 ?
Result: inactive

Task: Per the assay record, what outcome was assigned to CN(C)CCCNC(=O)C[C@H]1C[C@H](C(=O)N2CCOCC2)[C@@]2(C)c3[nH]c4ccc(Cl)cc4c3CCN2C1=O ?
Result: inactive

Task: Per the assay record, what outcome was assigned to Cc1ccc(S(=O)(=O)c2nnn3c2nc(N2CCCCC2)c2ccccc23)cc1 ?
Result: active

Task: Per the assay record, what outcome was assigned to CC(C)Cn1cc(C(=O)N2CCC(C)CC2)c2c3ccccc3n(C)c2c1=O ?
Result: inactive

Task: Per the assay record, what outcome was assigned to Cc1ncsc1C(=O)N1CCCC(C(=O)c2ccc3ccccc3c2)C1 (stereo not given) ?
Result: inactive

Task: Per the assay record, what outcome was assigned to CN1C(=O)C(N=Nc2ccc([N+](=O)[O-])cc2)SC1=S (stereo not given) ?
Result: active

Task: Per the assay record, what outcome was assigned to O=c1[nH]c2ccc(Cl)cc2[nH]1 ?
Result: inactive

Task: Per the assay record, what outcome was assigned to Cc1ccccc1NC(=O)Cc1nc(COC(=O)c2cc([N+](=O)[O-])ccc2NCCO)cs1 ?
Result: active

Task: Per the assay record, what outcome was assigned to COc1ccc(C(C(=O)NC2CCCC2)N(C(=O)c2ccoc2C)c2cc(C)cc(C)c2)cc1 (stereo not given) ?
Result: active

Task: Per the assay record, what outcome was assigned to CCOc1ccc(/C=C2\SC(=S)N(NS(=O)(=O)c3ccc(C)cc3)C2=O)cc1OC ?
Result: active

----------
molecular target: Ubiquitin-conjugating enzyme E2 N (Homo sapiens, UniProt P61088); assay type: functional;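 also: Dose-response confirmation in a TR-FRET assay detecting UBC13-driven polyubiquitin chain formation, inhibition measured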
Sequence (P61088 whole entry): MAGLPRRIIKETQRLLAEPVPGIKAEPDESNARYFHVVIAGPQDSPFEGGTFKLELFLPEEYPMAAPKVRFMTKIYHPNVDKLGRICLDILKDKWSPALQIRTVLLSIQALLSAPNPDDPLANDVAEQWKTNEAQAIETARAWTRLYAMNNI
Calls of active or inactive are those of the source.
Hi there, use one of these labels in your reply, thanks! active, inactive

Task: Per the assay record, what outcome was assigned to CCN(CC)CCNc1ncnc2c1sc1nc(N3CCOCC3)c3c(c12)CCCC3 ?
Result: inactive

Task: Per the assay record, what outcome was assigned to Cc1cc(C(=O)NNC(=S)NC(=O)/C=C/c2ccccc2Cl)[nH]n1 ?
Result: active

Task: Per the assay record, what outcome was assigned to COc1cccc(-c2sc3ccccc3c2-c2ccc(OCCN3CCCC3)cc2)c1 ?
Result: inactive
